Readings of melting point for the listed compounds

Worked examples follow.
C=CCC1(C)OC(=O)Nc2ccc(-c3cccc(Cl)c3)cc21 (centres unmarked) ... 128 to 129 °C
N#Cc1cc(-c2ccc3c(c2)C2(CCCCC2)OC(=O)N3)cs1 ... 230 to 232 °C
CC1(Cc2ccccc2)OC(=O)Nc2ccc(-c3cccc(Cl)c3)cc21 (centres unmarked) ... 187 to 188 °C
CCC1(CC)NC(=O)Oc2ccc(-c3cccc(Cl)c3)cc21 ... 150 to 151 °C
CN1C(=O)OC(C)(C)c2cc(-c3cc(F)cc(Br)c3)ccc21 ... 157 to 158 °C

Ask: Provide only the value of recorded melting point for CC1OC(=O)Nc2ccc(-c3cccc(F)c3)cc21 (centres unmarked)
Result: 160 to 161 °C

Ask: State its melting point: CCCc1cc(C#N)sc1-c1ccc2c(c1)C(C)(C)OC(=O)N2
Result: 160 to 162 °C

Ask: Find the measured melting point of CC1(C)OC(=O)Nc2ccc(-c3cccc(Br)c3)cc21 and report it.
Result: 174 to 175 °C

Ask: Fill in reported melting point for this entry: CC1(C)OC(=O)Nc2ccc(-c3ccc(Cl)cc3)cc21
Result: 255 to 257 °C

Ask: Check the records and state melting point for N#Cc1cc(F)cc(-c2ccc3c(c2)C(C2CC2)(C2CC2)OC(=O)N3)c1
Result: 250 to 252 °C

====

System: rat uterine decidualization
Experiment: Rat decidualization assay
Type: in vivo
Conditions: half-maximal decrease in EC50 progesterone induced decidual response
API: label(entry) gives t if the entry's Decidualization IC50 is strictly smaller than 2 mg/kg; on equality or larger values it gives f.

CC1(C)OC(=O)Nc2ccc(-c3ccc(F)c(Cl)c3)cc21 ... t
Cc1cc(C#N)sc1-c1ccc2c(c1)C(C)(C)OC(=O)N2 ... t
CC1(C)OC(=O)Nc2ccc(-c3ccc(C#N)s3)cc21 ... f
CC1(C)OC(=O)Nc2ccc(-c3cccc(Br)c3)cc21 ... f
CC1(C)OC(=O)Nc2ccc(-c3csc(C#N)c3)cc21 ... f

Ask: I wonder whether N#Cc1cc(F)cc(-c2ccc3c(c2)C(C2CC2)(C2CC2)OC(=O)N3)c1 has Decidualization IC50 below 2 mg/kg. Can you tell?
Result: f

Ask: Does the reported Decidualization IC50 of CC1(C)OC(=O)Nc2ccc(-c3cc(F)cc(C#N)c3)cc21 stay below 2 mg/kg?
Result: t

====

Molecular target: human PR (Homo sapiens)
Sequence (P06401 whole entry): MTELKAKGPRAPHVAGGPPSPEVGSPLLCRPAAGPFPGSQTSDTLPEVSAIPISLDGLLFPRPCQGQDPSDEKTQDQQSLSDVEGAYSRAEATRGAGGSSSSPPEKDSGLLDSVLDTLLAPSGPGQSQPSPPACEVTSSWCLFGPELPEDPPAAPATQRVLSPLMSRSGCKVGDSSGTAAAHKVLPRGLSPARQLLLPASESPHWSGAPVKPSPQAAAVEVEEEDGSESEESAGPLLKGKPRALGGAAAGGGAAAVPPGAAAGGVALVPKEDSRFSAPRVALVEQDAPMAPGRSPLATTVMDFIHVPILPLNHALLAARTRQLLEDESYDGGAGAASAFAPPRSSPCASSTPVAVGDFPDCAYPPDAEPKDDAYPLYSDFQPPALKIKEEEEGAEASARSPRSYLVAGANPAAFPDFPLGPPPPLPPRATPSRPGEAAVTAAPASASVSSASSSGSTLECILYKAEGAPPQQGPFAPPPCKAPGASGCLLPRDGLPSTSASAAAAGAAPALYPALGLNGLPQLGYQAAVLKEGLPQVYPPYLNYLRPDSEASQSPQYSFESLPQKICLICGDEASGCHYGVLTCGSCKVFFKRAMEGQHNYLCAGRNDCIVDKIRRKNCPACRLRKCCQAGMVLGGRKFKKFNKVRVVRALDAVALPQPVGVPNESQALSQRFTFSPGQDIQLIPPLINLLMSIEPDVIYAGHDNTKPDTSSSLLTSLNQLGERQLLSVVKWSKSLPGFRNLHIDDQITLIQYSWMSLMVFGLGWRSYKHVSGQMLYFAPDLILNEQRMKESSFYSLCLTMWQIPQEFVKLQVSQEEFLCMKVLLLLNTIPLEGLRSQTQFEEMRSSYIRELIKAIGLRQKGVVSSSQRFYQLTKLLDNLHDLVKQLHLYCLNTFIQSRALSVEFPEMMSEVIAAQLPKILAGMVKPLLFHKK
Assay: PRE-luciferase assay in CV-1 cells
Conditions: PR antagonist; CV-1 cells co-transfected with human PR and PRE-luciferase; in the presence of 3 nM progesterone; read-out: hPR CV-1 IC50
measurementKind: IC50 (nM)
Value expressed in nM; do not type the unit.

Ask: For the molecule CC1(C)OC(=O)Nc2ccc(-c3coc(C#N)c3)cc21 [Compound 7] , report IC50.
Result: 30

====

In this section, each of the compounds is paired with its reported melting point.

A selection of reference data follows.
O=C1Nc2ccc(-c3cccc(Cl)c3)cc2C2(CCCC2)O1 ... 140 to 145 °C
N#Cc1cccc(-c2ccc3c(c2)C2(CCCCC2)OC(=O)N3)c1 ... 245 to 247 °C
CC1(C)OC(=O)Nc2ccc(-c3cc(Br)cc(OC(F)(F)F)c3)cc21 ... 214 to 216 °C
CC1(C)OC(=O)Nc2ccc(-c3cccc(-c4nccs4)c3)cc21 ... 223 to 224 °C
Cn1cccc1-c1ccc2c(c1)C(C)(C)OC(=O)N2 ... 230 °C
CC1(C)OC(=O)Nc2ccc(-c3cccc(-c4nnn[nH]4)c3)cc21 ... 238 to 240 °C

Ask: Could you please provide reported melting point for CC1(C)OC(=O)Nc2ccc(-c3cc(F)cc(Br)c3)cc21 ? Thanks!
Result: 182 to 183 °C

Ask: Provide melting point value for the following compound: CC1(C)OC(=O)Nc2ccc(-c3cc(F)cc(F)c3)cc21
Result: 218 to 219 °C

Ask: State, in one line, measured melting point of CC1(C)OC(=O)Nc2ccc(-c3cc(C(F)(F)F)cc(C(F)(F)F)c3)cc21
Result: 258 to 260 °C

====

The molecules listed here are annotated with their melting point.

Ask: Give the value of melting point reported for the following: CC1(C)OC(=O)Nc2ccc(-c3ccc[nH]3)cc21 [Example 97]
Result: 202 °C (dec.)

Ask: Read the entry CC1(C)OC(=O)Nc2ccc(-c3cccc(C#C[Si](C)(C)C)c3)cc21 and write its reported melting point.
Result: 240 to 242 °C

Ask: Output measured melting point for this item: COc1cccc(-c2ccc3c(c2)C(C)(C)OC(=O)N3)c1 [Example 6]
Result: 164 to 165 °C

Ask: Report measured melting point; entry is CC1(C)OC(=O)Nc2ccc(-c3cccc([N+](=O)[O-])c3)cc21 [Example 13]
Result: 244 to 245 °C

Ask: Return the recorded melting point value; entry: CC1(C)OC(=O)Nc2ccc(-c3cccc(F)c3)cc21 [Compound 3]
Result: 181 to 182 °C

Ask: Fill in melting point for record CC1(C)OC(=O)Nc2ccc(-c3ccc(C#N)o3)cc21 [Example 119]
Result: 257 to 260 °C

====

measurementKind: melting point

Ask: Give the reported value of melting point for this record: CC1(C)OC(=O)Nc2c(Br)cc(-c3cc(F)cc(C#N)c3)cc21 [Example 124]
Result: 216 to 217 °C

Ask: Look up and report measured melting point for this entry: CC1(C)OC(=O)Nc2ccc(-c3coc(C=O)c3)cc21 [Example 144]
Result: 262 to 263 °C

Ask: Read off the recorded melting point for C#Cc1cccc(-c2ccc3c(c2)C(C)(C)OC(=O)N3)c1 [Example 74]
Result: 171 to 172 °C

Ask: Determine from records and report melting point for COCN1C(=O)OC(C)(C)c2cc(-c3cc(F)cc(C#N)c3)ccc21 [Example 67]
Result: 169 to 171 °C

Ask: Query melting point for CC#CC1(C2CC2)OC(=O)Nc2ccc(-c3cccc(Cl)c3)cc21 (stereo not drawn) [Example 42]
Result: 178 to 179 °C

====

Reported melting point values follow for various compounds

Would you please look over these solved cases?
COc1ccc(-c2ccc3c(c2)C(C)(C)OC(=O)N3)cc1F ... 210 to 211 °C
CC1(C)OC(=O)Nc2ccc(-c3cc(F)cc(CC#N)c3)cc21 ... 218 to 220 °C
CC#CC1(C#CC)OC(=O)Nc2ccc(-c3cccc(Cl)c3)cc21 ... 151 °C (dec.)
CC(=O)Nc1ccc(-c2ccc3c(c2)C(C)(C)OC(=O)N3)cc1F ... 245 to 247 °C
CC1(C)OC(=O)Nc2ccc(-c3cc(C#N)cc(OC(F)(F)F)c3)cc21 ... 227 to 228 °C
CC1(C)OC(=O)Nc2c(Br)cc(-c3ccc(F)c(Cl)c3)cc21 ... 194 to 195 °C
CC(C)(C)OC(=O)N1C(=O)OC(C)(C)c2cc(-c3cc(F)cc(C#N)c3)ccc21 ... 139 to 140 °C
CC1(C)OC(=O)Nc2ccc(-c3ccc(C#N)s3)cc21 ... 264 to 266 °C

Ask: Read the entry CC1(C)OC(=O)Nc2ccc(-c3cncc(Br)c3)cc21 and write its reported melting point.
Result: 211 to 212 °C

====

Listed here: items and their measured melting point.

Some molecules with recorded melting point:
CN1C(=O)OC(C)(C)c2cc(-c3cccc(Br)c3)ccc21 ... 142 to 143 °C
CC1(C)OC(=O)Nc2ccc(-c3cccc(C#N)c3F)cc21 ... 192 to 198 °C
COc1cc(F)cc(-c2ccc3c(c2)C(C)(C)OC(=O)N3)c1 ... 181 to 182 °C

Ask: Please give measured melting point of the following entry: CC1(C)OC(=O)Nc2ccc(-c3ccccc3CC#N)cc21
Result: 176 to 179 °C

Ask: Look up melting point of CC1OC(=O)Nc2ccc(-c3cccc(Cl)c3)cc21 (centres unmarked) and report it.
Result: 155 to 156 °C

====

measurementKind: melting point

CC1(C)OC(=O)Nc2ccc(-c3cc(Cl)cc(Cl)c3)cc21 [Compound 4] ... 245 to 246 °C

Ask: Note down melting point recorded for COc1cccc(-c2ccc3c(c2)C2(CCC2)OC(=O)N3)c1 [Example 122]
Result: 145 to 146 °C

Ask: Supply measured melting point of CCOC(OCC)N1C(=O)OC(C)(C)c2cc(-c3cc(F)cc(C#N)c3)ccc21 [Example 66] in your reply.
Result: 123 to 124 °C

Ask: Using the record for N#Cc1cc(-c2ccc3c(c2)C(C2CC2)(C2CC2)OC(=O)N3)cs1 [Example 53] , state its measured melting point.
Result: 244 to 245 °C

Ask: Fill in reported melting point for this entry: CC1(C)OC(=O)Nc2c(Br)cc(-c3ccc(F)c(C#N)c3)cc21 [Example 125]
Result: 235 to 236 °C

Ask: Look up melting point of CC1(C)OC(=O)Nc2c(O)cc(-c3cc(F)cc(C#N)c3)cc21 [Example 129] and report it.
Result: 197 to 198 °C

The reported numbers originate from patent US6444668B1.
